All figures here come from PubChem BioAssay AID1508600.

Assay: Components of the Cytosolic LPS Sensing Pathway: Gene Identification via Genome-wide siRNA Screen;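 note: robust z of the log signal after scaling to non-targeting control siRNA wells of the plate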
Settings: RAW264.7 macrophages, IL-1a HTRF, actives lie on both sides, screened at 100 nM (by protocol), cells primed 5 h with Pam3CSK4 first
Screen size: about 53,000 sequences; about 3,700 (7%) were called active. Only a selection was taken, and actives are over-represented in it overall.
# note: exactly -1 is not below, so it is False; use True for z-score strictly under it

{"Chain sequence": "GGACACAGACAAUGAAAUGTT against Fetub", "Group": "True"}
{"Chain sequence": "CCUAGAUUCUCCAAACUAATT against D630029K05Rik", "Group": "False"}
{"Chain sequence": "CGGAUAUGAGAUGAGAAUGTT against Morn4", "Group": "True"}
{"Chain sequence": "GACCCAGGCUCUGCUCUUUTT against Olfr1413", "Group": "False"}
{"Chain sequence": "CCAGAUUCUAUAAUAGAGUTT against Gabrp", "Group": "False"}
{"Chain sequence": "GGUUCUCGGUAAAUCCUGCTT against Slc35b1", "Group": "True"}
{"Chain sequence": "GCCUGUUCGGUGUUCAACUTT against Etv3", "Group": "False"}
{"Chain sequence": "CCCAUCUCACUAUUUAAUATT against Lrrc3b", "Group": "True"}
{"Chain sequence": "GGGACUAAUGUUUUGCCUATT against Krt16", "Group": "True"}
{"Chain sequence": "GGGAUUUAGCACAAGAUACTT against Brinp3", "Group": "False"}
{"Chain sequence": "GAAGACUUCAAUCAACCAGTT against Trim6", "Group": "False"}
{"Chain sequence": "CCAGAUAAUAAUUUGGAUGTT against Dhx9", "Group": "False"}

====

Assay: Components of the Cytosolic LPS Sensing Pathway: Gene Identification via Genome-wide siRNA Screen;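 note: robust z of the log signal after scaling to non-targeting control siRNA wells of the plate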
Details: RAW264.7 macrophages, IL-1a HTRF, actives lie on both sides, screened at 100 nM (by protocol), cells primed 5 h with Pam3CSK4 first
The whole screen tested about 53,000 sequences, of which about 3,700 (7%) were called active. This is one part of a sample in which actives are shown more often than they occur.

{"Chain sequence": "GGACUGACUGGAUUUUUCCTT against Adamts12", "z-score": -0.102}
{"Chain sequence": "GGCCGCAUACUGAUGAAAGTT against Scgn", "z-score": -0.395}
{"Chain sequence": "GGUUUCAUUUGGAUUUGCATT against Glyr1", "z-score": 0.491}
{"Chain sequence": "GCAUACGAUGGGAAUUGUATT against Wdr5b", "z-score": -1.6}
{"Chain sequence": "UCAGGUCGCUGCUAAACUCTT against Ccdc57", "z-score": -1.26}
{"Chain sequence": "GCAUUCAUCAAAUUUACAGTT against Prrg4", "z-score": -0.67}
{"Chain sequence": "CCACACCAUAACAACAUUCTT against Olfr800", "z-score": -2.05}
{"Chain sequence": "GCCGUUCCCAUUAUCGUUUTT against Tmem87a", "z-score": -0.693}
{"Chain sequence": "GGACUAGAAUAUCACAACGTT against Iqub", "z-score": 0.905}
{"Chain sequence": "GGCACAAGUUGACCAAUAUTT against Rtn1", "z-score": -0.263}
{"Chain sequence": "GGAGCUGAGAAACAAGAUUTT against Bspry", "z-score": -0.972}
{"Chain sequence": "GCUCACCUGAGUCAAUGAUTT against Nr5a2", "z-score": -2.25}
